B1: CPN1 (parent)
chain: RGVRRTASTPTPDDKLFQKLAKVY

variants of: B1; test: protein stability index of a GFP-peptide fusion (GPS, HEK-293T) (PSI 1-6); higher = more stable; conditions: c terminus: a fixed tail appended;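 note: lentivirally expressed fusions sorted by FACS into six bins by GFP to DsRed ratio, PSI derived from sequencing read proportions per bin multiplied by bin number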
Quick rule for you: protein stability index at 2 or higher means y, lower means n.

- T11L: n
- V3A: y
- P10A: y
- T11Q: y
- P12E: y
- R1I: n
- P10N: y
- K19P: y
- V3Y: y
- R4K: n
- K19Y: n
- K22G: y
- L16D: y
- V3M: n
- T9S: n
- T6Y: n
- V23G: y
